Origin of values: the supplement of paper PMC10567573

B1: TRIM29 (parent)
chain: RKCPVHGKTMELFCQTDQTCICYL

# Variants of: B1
# EXPERIMENTAL_DETAILS: protein stability index of a GFP-peptide fusion (GPS, HEK-293T) (PSI 1-6); higher = more stable;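 also: lentivirally expressed fusions sorted by FACS into six bins by GFP to DsRed ratio, PSI derived from sequencing read proportions per bin multiplied by bin number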
# APPLIED_CONDITIONS: c terminus: a fixed tail appended
Could you please report measured protein stability index for the items listed next?
Keep the answer to the number alone.

Field protein stability index (entry K2V ) reads 2.02

Field protein stability index (entry T9S ) reads 3.03

Field protein stability index (entry H6I ) reads 2.37

Field protein stability index (entry G7N ) reads 3.49

Field protein stability index (entry L12M ) reads 2.98

Field protein stability index (entry L24G ) reads 5.15

Field protein stability index (entry Y23M ) reads 3.38

Field protein stability index (entry F13R ) reads 1.96

Field protein stability index (entry R1T ) reads 2.32

Field protein stability index (entry L12V ) reads 2.87

Field protein stability index (entry Q18L ) reads 2.11

Field protein stability index (entry I21D ) reads 4.33

Field protein stability index (entry Q18S ) reads 1.68

Field protein stability index (entry R1N ) reads 2.84

Field protein stability index (entry T16V ) reads 2.6

Field protein stability index (entry G7K ) reads 1.63

Field protein stability index (entry T16R ) reads 1.91

Field protein stability index (entry C20M ) reads 3.2
